This listing pairs compounds with measured pIC50.
system.name: human S1P1 receptors (Homo sapiens, UniProt P21453)
Sequence (P21453 whole entry): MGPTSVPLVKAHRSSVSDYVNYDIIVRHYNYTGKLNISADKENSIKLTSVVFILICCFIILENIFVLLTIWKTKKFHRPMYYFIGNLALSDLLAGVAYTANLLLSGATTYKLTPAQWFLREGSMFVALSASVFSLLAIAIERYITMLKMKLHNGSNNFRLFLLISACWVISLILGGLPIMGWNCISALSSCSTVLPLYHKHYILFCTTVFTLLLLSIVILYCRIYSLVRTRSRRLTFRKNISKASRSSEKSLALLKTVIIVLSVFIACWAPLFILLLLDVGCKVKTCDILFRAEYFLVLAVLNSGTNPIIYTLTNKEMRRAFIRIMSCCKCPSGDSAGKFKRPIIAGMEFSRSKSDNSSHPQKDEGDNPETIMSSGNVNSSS
method: S1P1R antagonist assay (fluorescent membrane potential dye, cAMP readout)
cond: HEK293 cells expressing human S1P1 receptors and CNG channel; 500 nM NECA; S1P1R agonist 10 nM; 90 minutes; read-out: EC50 or IC50 value
pIC50: −log10 of the molar value.

Below are worked cases with known answers.
> print(dat)
                                   compound    test.value
1  CC(C)(C(=O)N[C@@H](COCc1ccccc1)C(=O)Nc1ccc(Oc2ccc(F)cc2)cc1)n1cncn1  6.00 to 6.52
2  O=C(Cc1cncnc1)N[C@@H](COCc1ccccc1)C(=O)Nc1ccc(Oc2ccc(F)cc2)cc1        ≥ 6.52
3  O=C(Nc1ccc(Oc2ccc(F)cc2)cc1)[C@@H]1C[C@@H](Cc2ccc(Cl)cc2Cl)CN1C(=O)Cn1cncn1        ≥ 6.52
4  O=C(NC(COCc1ccccc1)C(=O)Nc1ccc(Oc2ccccc2)cc1)c1cnnc2ccccc12 (stereo not drawn)  6.00 to 6.52
5  CC(=O)O[C@@H](C)C(=O)NC(COCc1ccccc1)C(=O)Nc1ccc(Oc2ccccc2)cc1 (stereo partly drawn)        < 6.00

Q: # input compound: O=C(Cc1c[nH]cn1)N[C@@H](COCc1ccccc1)C(=O)Nc1ccc(OCc2ccccc2)cc1 ; wanted: its pIC50
Ans: ≥ 6.52

Q: # input compound: O=C(Cc1cccc(Br)c1)N[C@@H](COCc1ccccc1)C(=O)Nc1ccc(Oc2ccc(F)cc2)cc1 ; wanted: its pIC50
Ans: 6.00 to 6.52

Q: # input compound: COC(C(=O)NC(COCc1ccccc1)C(=O)Nc1ccc(Oc2ccccc2)cc1)c1ccccc1 (stereo not drawn) ; wanted: its pIC50
Ans: < 6.00

Q: # input compound: O=C(Cc1cccc(Cl)c1F)NC(COCc1ccccc1)C(=O)Nc1ccc(Oc2ccccc2)cc1 (stereo not drawn) ; wanted: its pIC50
Ans: 6.00 to 6.52

Q: # input compound: O=C(N[C@@H]1C[C@@H](C(=O)Nc2ccc(Oc3ccc(F)cc3)cc2)N(C(=O)Cc2cnc[nH]2)C1)OCc1ccccc1 ; wanted: its pIC50
Ans: ≥ 6.52

Q: # input compound: O=C(Cc1cnc[nH]1)NC(COCc1ccccc1)C(=O)Nc1ccc(Oc2ccccc2)cc1 (stereo not drawn) ; wanted: its pIC50
Ans: ≥ 6.52

Q: # input compound: COC(=O)c1ccc(C(=O)NC(COCc2ccccc2)C(=O)Nc2ccc(Oc3ccccc3)cc2)cc1 (stereo not drawn) ; wanted: its pIC50
Ans: 6.00 to 6.52

Q: # input compound: CC1CN(CC(=O)N[C@@H](COCc2ccccc2)C(=O)Nc2ccc(Oc3ccc(F)cc3)cc2)CC(C)O1 (stereo partly drawn) ; wanted: its pIC50
Ans: ≥ 6.52

Q: # input compound: O=C(CN1CCN(c2ccc(F)cc2)CC1)N[C@@H](COCc1ccccc1)C(=O)Nc1ccc(Oc2ccc(F)cc2)cc1 ; wanted: its pIC50
Ans: 6.00 to 6.52

Q: # input compound: O=C(Cn1cnnn1)N[C@@H](COCc1ccccc1)C(=O)Nc1ccc(Oc2ccccc2)cc1 ; wanted: its pIC50
Ans: ≥ 6.52

Reference source for all entries: patent US8791102B2
